# subject-of-test: Large T antigen (Simian virus 40) (UniProt P03070)
# Sequence (P03070 whole entry, looked up): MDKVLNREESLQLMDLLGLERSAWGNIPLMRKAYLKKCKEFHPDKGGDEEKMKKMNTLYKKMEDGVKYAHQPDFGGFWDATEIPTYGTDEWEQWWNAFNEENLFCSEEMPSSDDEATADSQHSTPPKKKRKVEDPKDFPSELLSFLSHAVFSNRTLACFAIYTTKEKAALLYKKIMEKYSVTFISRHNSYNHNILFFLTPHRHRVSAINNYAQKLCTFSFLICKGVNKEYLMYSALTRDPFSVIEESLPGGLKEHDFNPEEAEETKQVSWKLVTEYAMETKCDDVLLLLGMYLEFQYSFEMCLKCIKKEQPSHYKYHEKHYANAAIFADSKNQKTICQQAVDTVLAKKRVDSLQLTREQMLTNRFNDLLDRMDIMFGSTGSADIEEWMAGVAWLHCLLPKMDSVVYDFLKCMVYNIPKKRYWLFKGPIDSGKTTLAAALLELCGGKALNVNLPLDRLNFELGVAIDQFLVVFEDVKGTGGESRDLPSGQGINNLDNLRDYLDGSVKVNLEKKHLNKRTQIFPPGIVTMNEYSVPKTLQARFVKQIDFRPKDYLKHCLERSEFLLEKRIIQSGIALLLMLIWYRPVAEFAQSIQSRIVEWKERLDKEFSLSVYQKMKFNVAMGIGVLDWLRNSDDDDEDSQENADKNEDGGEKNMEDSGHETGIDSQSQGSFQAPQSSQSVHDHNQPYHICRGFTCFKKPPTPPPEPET
# test-details: SV40 large T antigen inhibitors, biochemical (AID 1903)
# protocol-conditions: SV40 large T antigen ATPase/helicase inhibition assay; at 20 µM; active compounds read high
About 1,200 (0.39%) of roughly 310,000 compounds were called active. The list is a sample of the results. Measured potencies and affinities stand elsewhere.
Recorded inhibition by entry
measurement-type: inhibition

[[record]]
molecule = "O=C1Nc2cc(Cl)ccc2Nc2cscc21"
measurement_type = "inhibition"
result = "14.2% (inactive)"

[[record]]
molecule = "COc1ccc(-c2cc(=O)oc3cc(O)ccc23)cc1"
measurement_type = "inhibition"
result = "7.73% (inactive)"

[[record]]
molecule = "CC(C)Cn1cc(C(=O)N2CCN(c3ccccn3)CC2)c2c3ccccc3n(C)c2c1=O"
measurement_type = "inhibition"
result = "1.5% (inactive)"

[[record]]
molecule = "O=c1cc(-c2ccc(O)cc2)oc2c([C@@H]3O[C@H](CO)[C@@H](O)[C@H](O)[C@H]3O)c(O)c([C@@H]3O[C@H](CO)[C@@H](O)[C@H](O)[C@H]3O)c(O)c12"
measurement_type = "inhibition"
result = "7.48% (inactive)"

[[record]]
molecule = "Oc1cccc(/C=N/Nc2cc(N3CCOCC3)nc(N3CCOCC3)n2)c1"
measurement_type = "inhibition"
result = "-5.16% (inactive)"

[[record]]
molecule = "COc1ccc(/C=C(/NC(=O)c2ccc(C)cc2)C(=O)NCC2CCCO2)cc1 (centres undefined)"
measurement_type = "inhibition"
result = "9.41% (inactive)"

[[record]]
molecule = "COc1c(O)cc2c(c1O)C1OC(CO)C(O)C(O)C1OC2=O (centres undefined)"
measurement_type = "inhibition"
result = "2.96% (inactive)"

[[record]]
molecule = "CC(=O)Cc1cc(=O)c2c(C)cc(O)c(C3OC(CO)C(O)C(O)C3O)c2o1 (centres undefined)"
measurement_type = "inhibition"
result = "5.68% (inactive)"

[[record]]
molecule = "CCOC(=O)c1cc(-c2ccc(OC)cc2)n(CCC(=O)NCCN2CCC(C)CC2)c1C"
measurement_type = "inhibition"
result = "5.63% (inactive)"

[[record]]
molecule = "COc1cccc(N/C(SCc2ccccc2F)=C(/C#N)C(=O)NCc2cccs2)c1"
measurement_type = "inhibition"
result = "2.65% (inactive)"

[[record]]
molecule = "O=c1cc(-c2ccc(O)cc2)oc2c(C3OCC(O)C(O)C3O)c(O)c(C3OC(CO)C(O)C(O)C3O)c(O)c12 (centres undefined)"
measurement_type = "inhibition"
result = "45.1% (inactive)"

[[record]]
molecule = "O=C(O)C1OC(Oc2cc3oc(-c4ccccc4)cc(=O)c3c(O)c2O)C(O)C(O)C1O (centres undefined)"
measurement_type = "inhibition"
result = "17.2% (inactive)"

[[record]]
molecule = "CCOC(=O)c1c(C)c(C(=O)Nc2ccccc2)c(C)n1CC"
measurement_type = "inhibition"
result = "10.4% (inactive)"

[[record]]
molecule = "CCOC(=O)c1sc(=S)n(-c2ccc(OC)cc2)c1N"
measurement_type = "inhibition"
result = "15.3% (inactive)"


* * *

Recorded inhibition by entry
# subject-of-test: Large T antigen (Simian virus 40)
# test-details: SV40 large T antigen inhibitors, biochemical (AID 1903)
# protocol-conditions: SV40 large T antigen ATPase/helicase inhibition assay; at 20 µM; active compounds read high
Hit rate of the full screen: of about 310,000 compounds, about 1,200 (0.39%) were called active. These entries were drawn from the full list. Measured potencies and affinities stand elsewhere.
measurement-type: inhibition

[[record]]
molecule = "COc1cc2cccc(OC)c(=O)c2c(O)c1OC"
measurement_type = "inhibition"
result = "2.12% (inactive)"

[[record]]
molecule = "O=[N+]([O-])c1ccc(CSc2nc3ccccc3o2)cc1"
measurement_type = "inhibition"
result = "1.36% (inactive)"

[[record]]
molecule = "O=[N+]([O-])c1ccc(Cl)cc1Sc1nc2ccccc2o1"
measurement_type = "inhibition"
result = "3.7% (inactive)"

[[record]]
molecule = "Cc1ccc2[nH]c(=O)c(-c3nc4ccccn4c3NCc3ccco3)cc2c1"
measurement_type = "inhibition"
result = "26% (inactive)"

[[record]]
molecule = "CCOC(=O)CNc1c(-c2ccccc2)nc2ccc(Cl)cn12"
measurement_type = "inhibition"
result = "13.6% (inactive)"

[[record]]
molecule = "Cn1/c(=N/NC(=O)c2ccccc2Br)sc2ccccc21"
measurement_type = "inhibition"
result = "5.44% (inactive)"

[[record]]
molecule = "OCCNc1nc(Cl)nc(NCc2ccco2)n1"
measurement_type = "inhibition"
result = "3.58% (inactive)"

[[record]]
molecule = "CN1C(=O)SC(Nc2ccccc2)C1=O (centres undefined)"
measurement_type = "inhibition"
result = "5.64% (inactive)"

[[record]]
molecule = "CC(C)C[C@H](NC(=O)[C@@H]1Cc2c([nH]c3ccccc23)C2c3ccccc3C(=O)N21)C(=O)NCC1CCCO1 (some centres undefined)"
measurement_type = "inhibition"
result = "8.64% (inactive)"

[[record]]
molecule = "CCOCCn1c(SCc2ccccc2)nc2c1c(=O)[nH]c(=O)n2C"
measurement_type = "inhibition"
result = "16.9% (inactive)"

[[record]]
molecule = "COc1ccc2c(c1)CC/C(=C\\c1ccc(OC)c(Cn3nc(C)cc3C)c1)C2=O"
measurement_type = "inhibition"
result = "10.2% (inactive)"

[[record]]
molecule = "O=C(O)c1ccc(/C=C2\\SC(=S)N(Nc3ccccc3)C2=O)cc1"
measurement_type = "inhibition"
result = "32.2% (inactive)"

[[record]]
molecule = "COc1ccc2c(COC(=O)CCS(=O)(=O)c3ccc(C)cc3)cc(=O)oc2c1"
measurement_type = "inhibition"
result = "6.52% (inactive)"

[[record]]
molecule = "CC(=O)Nc1ccc(Nc2nnc(-c3ccc(C)c(S(=O)(=O)NCCO)c3)c3ccccc23)cc1"
measurement_type = "inhibition"
result = "10.9% (inactive)"

[[record]]
molecule = "S=c1[nH]nc(-c2ccncc2)n1/N=C/C=C/c1ccco1"
measurement_type = "inhibition"
result = "28.8% (inactive)"

[[record]]
molecule = "Cn1c(N)c(C(=O)Nc2ccccc2)c(=O)[nH]c1=O"
measurement_type = "inhibition"
result = "5.18% (inactive)"

[[record]]
molecule = "S=c1[nH]nc(C2CCCCC2)n1/N=C/c1ccc(Br)cc1"
measurement_type = "inhibition"
result = "0.57% (inactive)"

[[record]]
molecule = "COc1cccc(C=Nc2ccccc2C(=O)Nc2ccccc2)c1O"
measurement_type = "inhibition"
result = "1.08% (inactive)"

[[record]]
molecule = "CN(C)CCCN1c2ccccc2Sc2ccccc21"
measurement_type = "inhibition"
result = "33% (inactive)"

[[record]]
molecule = "Cc1ccc(-c2nnc(Nc3cccc(O)c3)c3ccccc23)cc1S(=O)(=O)NCCO"
measurement_type = "inhibition"
result = "34.4% (inactive)"

[[record]]
molecule = "O=Nc1c(O)[nH]c2ccc(F)cc12"
measurement_type = "inhibition"
result = "3.33% (inactive)"

[[record]]
molecule = "c1ccc2cc(OCCOCCOc3ccc4ccccc4c3)ccc2c1"
measurement_type = "inhibition"
result = "5.7% (inactive)"

[[record]]
molecule = "CCCC(=O)Oc1ccc2c(C)cc(=O)oc2c1"
measurement_type = "inhibition"
result = "18.6% (inactive)"

[[record]]
molecule = "Cc1cc(=O)[nH]c2cc(O)ccc12"
measurement_type = "inhibition"
result = "12.9% (inactive)"

[[record]]
molecule = "COCCNc1c(-c2ccc(O)cc2)nc2ccc(Cl)cn12"
measurement_type = "inhibition"
result = "25.7% (inactive)"

[[record]]
molecule = "CCN(Cc1ccccc1)S(=O)(=O)c1ccc(OC)c2ncccc12"
measurement_type = "inhibition"
result = "11.3% (inactive)"

[[record]]
molecule = "COC(=O)Cc1nnc(SCC(=O)Nc2ccccc2)c2ccccc12"
measurement_type = "inhibition"
result = "11.3% (inactive)"

[[record]]
molecule = "O=C(CN1CCCCC1)Nc1ccc(N2CCCCCC2)cc1"
measurement_type = "inhibition"
result = "31.6% (inactive)"

[[record]]
molecule = "O=C(Cn1c(=O)n(Cc2ccco2)c(=O)c2c3c(sc21)CCCCC3)c1ccccc1"
measurement_type = "inhibition"
result = "49.4% (inactive)"

[[record]]
molecule = "Cc1ccc2[nH]c(O)c(N=O)c2c1"
measurement_type = "inhibition"
result = "1.83% (inactive)"

[[record]]
molecule = "CC(=O)Nc1ccc(N2CCCC2)cc1"
measurement_type = "inhibition"
result = "0.723% (inactive)"

[[record]]
molecule = "COc1ccc2nc(NC(=O)C3CCN(C(=O)c4ccco4)CC3)sc2c1"
measurement_type = "inhibition"
result = "-5.44% (inactive)"

[[record]]
molecule = "CCCCOc1cccc(C(=O)N(Cc2ccccc2)C2CCS(=O)(=O)C2)c1 (centres undefined)"
measurement_type = "inhibition"
result = "-0.72% (inactive)"

[[record]]
molecule = "Cc1nc(SCC(=O)N2c3ccccc3Sc3ccccc32)n[nH]1"
measurement_type = "inhibition"
result = "12.6% (inactive)"

[[record]]
molecule = "CCN(CC)CCNC(=O)c1cn(-c2ccccc2)nc1-c1cccs1"
measurement_type = "inhibition"
result = "12.7% (inactive)"

[[record]]
molecule = "C(=C\\c1ccco1)/C=N/n1cnnc1"
measurement_type = "inhibition"
result = "21.7% (inactive)"

[[record]]
molecule = "CCOC(=O)CNc1c(-c2ccc(OC)cc2)nc2ccc(Cl)cn12"
measurement_type = "inhibition"
result = "19.4% (inactive)"

[[record]]
molecule = "S=c1[nH]nc(-c2ccc(Cl)cc2)n1/N=C/c1ccco1"
measurement_type = "inhibition"
result = "35.9% (inactive)"

[[record]]
molecule = "CCc1ccc(NC(=O)[C@H](NC(=O)[C@@H]2Cc3ccccc3CN2)c2ccccc2)cc1"
measurement_type = "inhibition"
result = "7.36% (inactive)"

